Data origin, for the record: ChEMBL document CHEMBL1201862

- Test system: COLO 205
- assay notes: NCI tumour cell line growth inhibition, 48 h
The source made the active and inactive calls. Rule as the data show it: active = GI50 up to about 1.1 µM and inactive = higher.
measurement name: GI50

molecule: Cc1[nH]n(-c2nc(O)c(-c3ccccc3)c(=O)[nH]2)c(=O)c1CCO
result: > 100 µM (inactive)

Proceeding to the next molecule to report its GI50.
QUERY: Return GI50 measured with COLO 205 given this molecule: O=C(NCCC1CN(S(=O)(=O)C(F)(F)F)c2ccccc21)OCc1ccccc1 (stereo unspecified)
RESULT: > 100 µM (inactive)

* * *

- System: IGROV-1
- assay notes: NCI tumour cell line growth inhibition, 48 h
Activity calls are given as the source filed them. No stated cut-off is given here; in the data, active = GI50 up to about 1.1 µM and inactive = higher.
GI50 listing for selected compounds.

compound: N#Cc1c2c(c(N=[N+]=[N-])n3c1nc1ccccc13)CCCC2
GI50: 2.72 µM (inactive)
--
compound: COc1c(C)c(C/C=C(\C)CC/C=C(\C)CCC=C(C)C)c(OC)c(OC)c1OC
GI50: > 100 µM (inactive)
--
compound: O=C(c1ccccc1)c1c(-c2ccccc2)sc2nc3ccccc3nc12
GI50: > 100 µM (inactive)
--
compound: CC(=O)O[C@H]1C(=O)[C@@]2(C)[C@H]([C@H](OC(=O)c3ccc(F)cc3)[C@]3(O)C[C@H](OC(=O)[C@H](O)[C@@H](NC(=O)c4ccccc4)c4ccccc4)C(C)=C1C3(C)C)[C@]1(OC(C)=O)CO[C@@H]1C[C@@H]2O
GI50: 0.0233 µM (active)
--
compound: N#C/N=C1\NCCC(=O)N1CCc1c[nH]c2ccccc12
GI50: > 100 µM (inactive)
--
compound: O=C(c1ccccc1)c1oc2ccc(Br)cc2c1-c1cnn(-c2ccccc2)c1
GI50: > 100 µM (inactive)
--
compound: C=C(C)[C@@]1(O[Si](C)(C)C)CCCC[C@@H]1CC(Sc1ccccc1)Sc1ccccc1
GI50: 15.6 µM (inactive)
--
compound: O=C(O)C1CCN(Cc2oc(CO)cc(=O)c2O)C1 (stereo unspecified)
GI50: > 100 µM (inactive)
--
compound: CN(C)CCC(/C=C/c1ccccc1)=N\Nc1ccc(Cl)cc1
GI50: 2.64 µM (inactive)
--
compound: Cn1cnc2c(sc3nc4ccccc4n32)c1=N
GI50: 22.6 µM (inactive)

QUERY: Name the recorded GI50 for `COc1cc2c(c(OC)c1OC)C(=O)NCCC2` .
RESULT: > 100 µM (inactive)

QUERY: What GI50 value was documented for this compound, COC(=O)CCN1CCN(CCO)CC1C (stereo unspecified) ?
RESULT: > 10 µM (inactive)

QUERY: Value lookup for GI50; key = `CN(C)CCN1C(=O)N(CCN(C)C)c2c3cc(O)ccc3nc3c([N+](=O)[O-])ccc1c23`
RESULT: 2.81 µM (inactive)

QUERY: # lookup: GI50 of CC1=NN(c2ccc(C)cc2)C2(C1)SCC(=O)N2c1nc2ccccc2s1 (stereo unspecified)
RESULT: 12.9 µM (inactive)

QUERY: Which measured GI50 value corresponds to `Nc1c2cc3ccc2nc2ccc(cc12)OCCOCCOCCOCCOCCOCCO3` ?
RESULT: > 10 µM (inactive)

QUERY: For the compound `CN1N=C(c2ccccc2)c2cc(Cl)ccc2N=C1N/N=C/c1ccc(N(C)C)cc1` , what GI50 is on record?
RESULT: > 100 µM (inactive)

QUERY: So what's the measured GI50 for this one? `Cc1c2cccc-2ccc2c1[nH]c1ccccc12`
RESULT: 2 µM (inactive)

QUERY: State the recorded GI50 for this entry: OCC1NC(CO)C(O)C1O (stereo unspecified)
RESULT: > 100 µM (inactive)
